- assay-target: T1, human MSLN-R2-his protein (human, UniProt Q13421 391-486)
- T1 construct: also called human MSLN-R2 protein; hMSLN-R2-his; not shown: His tag
- T1 sequence (Q13421 other isoform, or with tags, fused parts or gaps): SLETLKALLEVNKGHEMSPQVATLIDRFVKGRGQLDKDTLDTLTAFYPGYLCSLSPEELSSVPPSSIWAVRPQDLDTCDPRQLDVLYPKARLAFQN
- procedure-text: ELISA, coated antigen; antibody 100 nM
value-kind: OD450 (OD450)
Give the quantity in OD450, number only.

Record summary for S009-F3.38.10 (antibody, human IgG1, kappa, V domains shown, Human-murine chimeric antibody, human IgG1/kappa constant regions) VH: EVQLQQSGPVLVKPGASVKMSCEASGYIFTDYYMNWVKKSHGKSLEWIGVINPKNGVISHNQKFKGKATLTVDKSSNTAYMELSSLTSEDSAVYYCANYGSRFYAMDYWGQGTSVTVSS VL: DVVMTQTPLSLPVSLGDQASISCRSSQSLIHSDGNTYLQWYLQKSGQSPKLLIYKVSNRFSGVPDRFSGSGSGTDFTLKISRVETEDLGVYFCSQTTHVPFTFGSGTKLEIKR : reported OD450 = 0.13
